# system: T1, murine CD28-Fc (mouse, UniProt P31041 20-150)
# T1 sequence: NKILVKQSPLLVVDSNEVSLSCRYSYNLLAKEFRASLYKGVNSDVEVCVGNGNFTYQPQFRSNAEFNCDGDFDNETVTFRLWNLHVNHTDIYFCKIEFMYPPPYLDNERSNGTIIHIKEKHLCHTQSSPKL
# test: filter binding
readoutLabel: Kd
Answer with the figure and its unit, nothing else.

Looking for the measured Kd of CD28Apt7 (monomer) (structured_RNA, 2'-fluoropyrimidine (2'-F C and U)) RNA: GGGAGAGAGGAAGAGGGAUGGGGAUUAGACCAUAGGCUCCCAACCCCCAUAACCCAGAGGUCGAUAGUACUGGAUCCCCCC , can you help?
60 nM
